# Target Of Assay: Muscarinic acetylcholine receptor M3 (Rattus norvegicus)
# Sequence (P08483 whole entry): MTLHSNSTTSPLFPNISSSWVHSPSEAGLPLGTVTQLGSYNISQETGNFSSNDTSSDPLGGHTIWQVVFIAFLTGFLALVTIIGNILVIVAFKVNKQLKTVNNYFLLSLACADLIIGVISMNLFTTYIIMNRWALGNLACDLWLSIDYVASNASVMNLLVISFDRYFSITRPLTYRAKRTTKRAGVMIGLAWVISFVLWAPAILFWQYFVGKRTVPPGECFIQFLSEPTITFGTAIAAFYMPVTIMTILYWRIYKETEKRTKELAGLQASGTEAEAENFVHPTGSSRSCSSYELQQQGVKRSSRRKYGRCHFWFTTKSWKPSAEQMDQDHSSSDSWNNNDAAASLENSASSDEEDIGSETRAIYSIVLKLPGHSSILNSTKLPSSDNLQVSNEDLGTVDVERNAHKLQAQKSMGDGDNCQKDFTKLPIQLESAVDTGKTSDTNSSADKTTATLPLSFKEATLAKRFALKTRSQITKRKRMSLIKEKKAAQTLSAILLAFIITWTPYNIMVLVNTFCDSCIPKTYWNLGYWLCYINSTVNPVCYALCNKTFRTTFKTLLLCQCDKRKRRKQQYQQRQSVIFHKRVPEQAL
Outcome Measure: IC50

Entry CC(C(O)c1ccc(O)cc1)N1CCC(Cc2ccccc2)CC1 (stereo unspecified) has what IC50?
> 1 µM

====

Each entry below carries its recorded selectivity ratio.
# Tested on: Alpha-1 adrenergic receptor versus NMDA receptor
# Experimental Protocol: Therapeutic index is the ratio of IC50 value for Alpha-1 adrenergic receptor to that for NMDA.
# Test Context: read-out: TI
Respond using a number only.

Field: example entries. Status: answers known.
C[C@@H]([C@H](O)c1ccccc1)N1CCC(Cc2ccccc2)CC1 : 0.28
CC(Cc1ccc(O)cc1)N1CCC(Cc2ccccc2)CC1 (stereo not drawn) : 0.85
C[C@@H]([C@@H](O)c1ccc(F)cc1)N1CCC(Cc2ccccc2)CC1 : 25.6
C[C@@H]([C@H](O)c1ccc(F)cc1)N1CCC(Cc2ccccc2)CC1 : 0.94

Entry CCCC1CCN([C@@H](C)[C@@H](O)c2ccc(O)cc2)CC1 has what selectivity ratio?
0.61

Same question, c1ccc(CCN2CCC(Cc3ccccc3)CC2)cc1 this time
1.19

Same question, C[C@@H]([C@@H](O)c1ccccc1)N1CCC(Cc2ccccc2)CC1 this time
0.92

Same question, OC(CN1CCC(Cc2ccccc2)CC1)c1ccccc1 (stereo not drawn) this time
0.43
